# System: SNB-19 CNS
# measurement_notes: NCI tumour cell line growth inhibition, 48 h
experimental_readout: TGI (µM)
State just the number; it will be interpreted in µM.

Data request: Consider the molecule shown here: N=C(N)SCc1c2ccccc2c(CSC(=N)N)c2ccccc12 What is its recorded TGI?
Data returned: 25

Data request: Fill in: TGI of Cc1ccc2c(c1)c(Sc1ccc(C(=O)NO)cc1)c1n2CN(C)CC1 is ___
Data returned: 7.27

###

Exercise: state measured TGI for each of the compounds provided.
# Test system: LOX IMVI melanoma
# measurement_notes: NCI tumour cell line growth inhibition, 48 h

Data request: Which TGI is listed for [N-]=[N+]=Nc1c(Cl)c(Cl)nc2ccccc12 ?
Data returned: > 100 µM

Data request: Need TGI of CC(=O)Nc1c(I)c(NC(C)=O)c(I)c(C(=O)O)c1I , thanks.
Data returned: > 100 µM

Data request: Name the recorded TGI for CCCCC(C(=O)CCC(=O)Nc1ccc(Cl)c(Cl)c1)C(=O)C(C)C (stereo not given) .
Data returned: > 100 µM

Data request: Look at this compound and give its reported TGI. N#CCCN(CCC#N)c1ccc(/C=C(\NC(=O)c2cc([N+](=O)[O-])ccc2Cl)C(=O)Nc2ccccc2)cc1
Data returned: > 100 µM

Data request: Param item = N=C(N)SCc1c2ccccc2c(CSC(=N)N)c2ccccc12 ; retrieve measured TGI.
Data returned: 21.9 µM

Data request: Returns the measured TGI for the input compound. Input: Cc1[nH]c(=O)[nH]c(=O)c1/C=C/C(=O)NC(CO)CS(=O)Cc1ccccc1 (stereo not given)
Data returned: > 300 µM

Data request: Which TGI is listed for CCOC(=O)c1cc2c3c(c(C(C)=O)c(O)c2[nH]1)N(C(C)=O)CC3 ?
Data returned: > 100 µM

Data request: // returns reported TGI for input COCCNc1ccc2c3c(cccc13)C(=O)N(CCN(C)C)C2=O
Data returned: > 25 µM

Data request: So what does the record say about TGI for CCOC(=O)CCSc1nc2ccc(I)cc2c(=O)n1Cc1ccccc1 ?
Data returned: > 77.3 µM

Data request: Item C[C@]12CC[C@H]3[C@@H](CC=C4C[C@@H](O)CC[C@@]43C)[C@@H]1C/C(=C/c1ccccc1)[C@@H]2O has what recorded TGI?
Data returned: > 50.2 µM

###

# Tested on: RXF-631 renal
# measurement_notes: NCI tumour cell line growth inhibition, 48 h
experimental_readout: TGI (µM)
Number only, in µM; omit the unit.

Data request: Recorded TGI of O=C1C=CC(=O)c2c1ccc1c3ccccc3n(-c3ccccc3)c21 , please.
Data returned: 82.2

Data request: // TGI lookup, key: O=[N+]([O-])c1ccc(C2=Nn3c(nnc3-c3ccc(Cl)cc3)SC2)o1
Data returned: 27.9

###

# Tested on: MCF7 breast
# measurement_notes: NCI tumour cell line growth inhibition, 48 h; in the data active = GI50 below about 0.43 µM; inactive = the rest
Would you mind answering with one of these outcomes? active, inactive

Data request: Recorded test outcome, item Cc1ccc(-c2cc3c4c(nc5ccccc53)C(=O)c3cccnc3-c4n2)cc1
Data returned: inactive

Data request: # lookup: test call for COc1ccc(Cn2cc3c(c2-c2ccccc2)CCc2cnoc2-3)cc1OC
Data returned: inactive

Data request: Could you kindly confirm the outcome this assay logged for O=c1[nH]c(=O)c2cc3cc(C4CC(O)C(CO)O4)ccc3cc2[nH]1 (stereo unspecified) ?
Data returned: inactive

Data request: # fetch the recorded call for CCCCCCCCC/C(=N\NC(=O)c1ccncc1)c1ccc(O)c(O)c1O here
Data returned: active

Data request: Per the records of this test, what outcome belongs to CCCCCCCCCCCC(=O)N1CCN(C(C)=O)CC1 ?
Data returned: inactive

Data request: Hello, I am checking results. What call was entered for CCOC(=O)c1cc(C(=O)c2cc(OC)c(OC)c(OC)c2)n2c1ccc1ccccc12 ?
Data returned: active
